# Measured Target: T1, similar peptide SP-05-0003, source protein not stated peptide on HLA-A*02:01 (human)
# T1 peptide: KVTEMLVNV
# Test Description: killing
Outcome Measure: binding result

>  <Binder>
TCR-13 (TCR, V domains shown) Valpha: QKITQTQPGMFVQEKEAVTLDCTYDTSDQSYGLFWYKQPSSGEMIFLIYQGSYDEQNATEGRYSLNFQKARKSANLVISASQLGDSAMYFCAMSDPIMDTGRRALTFGSGTRLQVQP Vbeta: GITQSPKYLFRKEGQNVTLSCEQNLNHDAMYWYRQDPGQGLRLIYYSQIVNDFQKGDIAEGYSVSREKKESFPLTVTSAQKNPTAFYLCASKSRGPNLADTQYFGPGTRLTVL

>  <Outcome Measure>
binding result

>  <Result>
no recognition

$$$$
>  <Binder>
TCR-15 (TCR, V domains shown) Valpha: KQEVTQIPAALSVPEGENLVLNCSFTDSAIYNLQWFRQDPGKGLTSLLLIQSSQREQTSGRLNASLDKSSGRSTLYIAASQPGDSATYLCAVLLTGKLIFGQGTTLQVKP Vbeta: GVTQTPRYLIKTRGQQVTLSCSPISGHRSVSWYQQTPGQGLQFLFEYFSETQRNKGNFPGRFSGRQFSNSRSEMNVSTLELGDSALYLCASSGGPGPSGEQYFGPGTRLTVT

>  <Outcome Measure>
binding result

>  <Result>
no recognition

$$$$
